- Experimental system: p38α (Homo sapiens)
- Construct: p38 MAP Kinases are recombinant human full-length proteins with an amino-terminal GST fusion; GST (N)
- Procedure summary: p38 MAP Kinase assay: inhibition of ATF2 phosphorylation, ELISA
- Conditions used: ATF2 phosphorylation; read-out: [ENZ] P38 ALPHA, IC50, ELISA
pIC50: −log10 of the molar value.
In this section, each of the molecules is paired with its reported pIC50.

| Molecule | pIC50 |
| --- | --- |
| O=C(Nc1ccc(OCCN2CCOCC2)c2ccccc12)c1cccc(-c2cccc(OC(F)(F)F)c2)c1 [Compound B297] | < 5.00 |
| O=C(Nc1ccc(OCCN2CCOCC2)c2ccccc12)c1cnc(N2CCOCC2)c2ccccc12 [Compound B28] | < 4.00 |
| C[C@@H]1CN(CCOc2ccc(NC(=O)c3ccc(CN4CCOCC4)cc3)c3ccccc23)C[C@H](C)O1 [Compound B5] | < 5.00 |
| O=C(Nc1ccc(OCCN2CCOCC2)c2ccccc12)c1cccc(/C=C/c2ccccc2)c1 [Compound B98] | < 5.00 |

---

| Compound | melting point |
| --- | --- |
| O=C(Nc1ccc(OCCN2CCOCC2)c2ccccc12)c1cccc(-n2cccc2)c1 [Compound B57] | 142 to 143 °C |
| CCN1CCN(c2nccc(Oc3ccc(NC(=O)c4cc(F)cc(N5CCOCC5)c4)c4ccccc34)n2)CC1 [Compound B345] | 185 to 186 °C |
| COc1ccc(CCOc2ccc(NC(=O)c3cc(F)cc(N4CCOCC4)c3)c3ccccc23)cc1OC [Compound B189] | 73 to 75 °C |
| O=C(Nc1ccc(Oc2ccnc(NC3CCCCC3)n2)c2ccccc12)c1cc(F)cc(N2CCOCC2)c1 [Compound B323] | 135 to 136 °C |
| C#CCN(C)c1nccc(Oc2ccc(NC(=O)c3cc(F)cc(N4CCCCC4)c3)c3ccccc23)n1 [Compound B407] | 116 to 117 °C |
| O=C(Nc1ccc(Oc2ccnc(N3CCCC3)n2)c2ccccc12)c1cc(F)cc(N2CCCCC2)c1 [Compound B377] | 111 to 113 °C |
| CSc1nccc(Oc2ccc(NC(=O)c3cc(F)cc(N4CCCCC4)c3)c3ccccc23)n1 [Compound B311] | 170 to 172 °C |
| CSc1nccc(Oc2ccc(NC(=O)c3cc(F)cc(OC4CCCCC4)c3)c3ccccc23)n1 [Compound B303] | 130 to 132 °C |
| CC(=O)N1CCN(c2nccc(Oc3ccc(NC(=O)c4cc(F)cc(N5CCCCC5)c4)c4ccccc34)n2)CC1 [Compound B400] | 102 to 104 °C |
| O=C(Nc1ccc(Oc2ccnc(N3CCCC(O)C3)n2)c2ccccc12)c1cc(F)cc(N2CCOCC2)c1 (stereo not shown) [Compound B346] | 180 to 181 °C |
| CN(CC1OCCO1)c1nccc(Oc2ccc(NC(=O)c3cc(F)cc(N4CCOCC4)c3)c3ccccc23)n1 [Compound B349] | 111 to 112 °C |
| O=C(Nc1ccc(OCc2ccncc2)c2ccccc12)c1cc(F)cc(N2CCOCC2)c1 [Compound B191] | 157 to 159 °C |
| CC(C)N(C)c1nccc(Oc2ccc(NC(=O)c3cc(F)cc(N4CCOCC4)c3)c3ccccc23)n1 [Compound B322] | 94 to 96 °C |
| CC1CCN(c2cc(F)cc(C(=O)Nc3ccc(OCc4n[nH]c(=O)n4-c4ccccc4)c4ccccc34)c2)CC1 [Compound B263] | 140 to 143 °C |
| CCN(C)c1cc(F)cc(C(=O)Nc2ccc(OCCN3CCOCC3)c3ccccc23)c1 [Compound B207] | 126 to 128 °C |
| O=C(Nc1ccc(Oc2ccnc(NCCO)n2)c2ccccc12)c1cc(F)cc(N2CCOCC2)c1 [Compound B252] | 127 to 129 °C |
| C[C@@H]1CN(c2nccc(Oc3ccc(NC(=O)c4cc(F)cc(N5CCOCC5)c4)c4ccccc34)n2)C[C@H](C)O1 [Compound B364] | 118 to 120 °C |
| O=C(Nc1ccc(Oc2ccnc(-n3ccnc3)n2)c2ccccc12)c1cc(F)cc(N2CCCCC2)c1 [Compound B379] | 175 to 176 °C |
| O=C(Nc1ccc(OCCN2CCOCC2)c2ccccc12)c1cc(F)cc(OC2CCCCC2)c1 [Compound B195] | 116 to 118 °C |
| C#CCN(C)c1nccc(Oc2ccc(NC(=O)c3cc(F)cc(N4CCOCC4)c3)c3ccccc23)n1 [Compound B352] | 97 to 98 °C |
| CC1CCN(c2nccc(Oc3ccc(NC(=O)c4cc(F)cc(N5CCOCC5)c4)c4ccccc34)n2)CC1 [Compound B335] | 117 to 118 °C |
| O=C(Nc1ccc(OCCN2CCOCC2)c2ccccc12)c1cccc(N2CCCCC2)c1 [Compound B48] | 147 to 148 °C |
| COc1ccc(CCOc2ccc(NC(=O)c3cc(F)cc(N4CCCCC4)c3)c3ccccc23)cc1OC [Compound B179] | 158 to 160 °C |
| CC1CCCN1c1cc(F)cc(C(=O)Nc2ccc(OCCN3CCOCC3)c3ccccc23)c1 (stereo not shown) [Compound B208] | 108 to 111 °C |
| CC(C)(C)OC(=O)NC1CCN(c2nccc(Oc3ccc(NC(=O)c4cc(F)cc(N5CCOCC5)c4)c4ccccc34)n2)CC1 [Compound B366] | 214 to 216 °C |

---

- Experimental system: p38α (Homo sapiens, UniProt Q16539)
- Construct: p38 MAP Kinases are recombinant human full-length proteins with an amino-terminal GST fusion; GST (N); purchased Upstate Biotechnology Inc; host or cells: E. coli
- Sequence (Q16539 whole entry, the tested form may be a part): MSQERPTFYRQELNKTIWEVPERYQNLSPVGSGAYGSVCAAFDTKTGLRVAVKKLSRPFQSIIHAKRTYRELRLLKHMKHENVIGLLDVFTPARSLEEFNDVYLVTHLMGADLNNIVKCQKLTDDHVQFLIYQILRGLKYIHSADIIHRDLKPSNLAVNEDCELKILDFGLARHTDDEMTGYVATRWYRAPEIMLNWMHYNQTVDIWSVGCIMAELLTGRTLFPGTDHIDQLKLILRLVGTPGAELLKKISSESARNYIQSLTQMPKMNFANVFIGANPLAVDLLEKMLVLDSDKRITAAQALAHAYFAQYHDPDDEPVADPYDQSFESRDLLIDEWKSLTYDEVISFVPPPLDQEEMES
- Procedure summary: p38 MAP Kinase assay: inhibition of ATF2 phosphorylation, ELISA
- Type: biochemical
- Conditions used: 10 uM; substrate ATF2; read-out: [ENZ] P38 ALPHA, PCT INH, ELISA (10 uM;ATF2) (Percent)
Quantity name: inhibition at 10 µM (%)

| Compound | Quantity name | Measured result |
| --- | --- | --- |
| O=C(Nc1ccc(OCCN2CCOCC2)c2ccccc12)c1cccc(-c2ccccc2)c1 | inhibition at 10 µM | 88 |
| O=C(Nc1ccc(OCCN2CCOCC2)c2ccccc12)c1cccc(N2CCC(N3CCCCC3)CC2)n1 | inhibition at 10 µM | 14 |
| O=C(Nc1ccc(OCCN2CCOCC2)c2ccccc12)C1=CC=CC(C(F)(F)F)C1Cl (centres unmarked) | inhibition at 10 µM | 6 |
| O=C(Nc1ccc(OCCN2CCOCC2)c2ccccc12)c1cccc(N2CCc3ccccc3C2)c1 | inhibition at 10 µM | 36 |
| O=C(Nc1ccc(OCCN2CCSCC2)c2ccccc12)c1cccc(N2CCOCC2)c1 | inhibition at 10 µM | 73.5 |
| COc1ccc(Cl)cc1-c1cccc(C(=O)Nc2ccc(OCCN3CCOCC3)c3ccccc23)c1 | inhibition at 10 µM | 50 |
| O=C(Nc1ccc(OCCN2CCOCC2)c2ccccc12)c1cccc(C(F)(F)F)c1 | inhibition at 10 µM | 10 |
| CCOc1ccccc1-c1cccc(C(=O)Nc2ccc(OCCN3CCOCC3)c3ccccc23)c1 | inhibition at 10 µM | 52 |

---

- Experimental system: p38α (Homo sapiens, UniProt Q16539)
- Construct: p38 MAP Kinases are recombinant human full-length proteins with an amino-terminal GST fusion; GST (N)
- Procedure summary: p38 MAP Kinase assay: inhibition of ATF2 phosphorylation, ELISA
- Conditions used: ATF2 phosphorylation; read-out: [ENZ] P38 ALPHA, IC50, ELISA
pIC50: −log10 of the molar value.
In this section, each of the compounds is paired with its reported pIC50.

| Compound | Limit sign | pIC50 |
| --- | --- | --- |
| O=C(Nc1ccc(OCCN2CCOCC2)c2ccccc12)c1cc(F)cc(N2CCOCC2)c1 [Compound B206] | = | 5.99 |
| O=C1CN(CCCOc2ccc(NC(=O)c3cc(F)cc(N4CCCCC4)c3)c3ccccc23)CCN1 [Compound B175] | = | 5.95 |
| CN(c1cccc(C(=O)Nc2ccc(OCCN3CCOCC3)c3ccccc23)n1)C1CCCCC1 [Compound B137] | < | 4.00 |
| O=C(Nc1ccc(OCCN2CCOCC2)c2ccccc12)c1ccc2c(c1)OCCCO2 [Compound B62] | < | 5.00 |
| O=C(Nc1ccc(OCCN2CCOCC2)c2ccccc12)c1cccc(N2CCCCC2)n1 [Compound B142] | < | 4.00 |
| CSc1nccc(Oc2ccc(NC(=O)c3cc(F)cc(N4CCOCC4)c3)c3ccccc23)n1 [Compound B246] | = | 7.40 |

---

In this section, each of the compounds is paired with its reported IC50.
- Experimental system: p38α (Homo sapiens)
- Construct: p38 MAP Kinases are recombinant human full-length proteins with an amino-terminal GST fusion; GST (N)
- Procedure summary: p38 MAP Kinase assay: inhibition of ATF2 phosphorylation, ELISA
- Conditions used: ATF2 phosphorylation; read-out: [ENZ] P38 ALPHA, IC50, ELISA

| Structure string | IC50 |
| --- | --- |
| CCOC(=O)N1CCN(CCOc2ccc(NC(=O)c3ccc(CN4CCOCC4)cc3)c3ccccc23)CC1 | > 10 µM |
| CN(C)c1ccccc1C(=O)Nc1ccc(OCCN2CCOCC2)c2ccccc12 | > 100 µM |
| CC1CCN(c2cccc(C(=O)Nc3ccc(OCCN4CCOCC4)c4ccccc34)n2)CC1 | > 100 µM |
| Cc1ccc(-c2cccc(C(=O)Nc3ccc(OCCN4CCOCC4)c4ccccc34)c2)cc1 | > 10 µM |
